Exercise: state measured pIC50 for each of the compounds provided.
testSystem: human orexin-1 receptor (Homo sapiens (Human), UniProt O43613)
Sequence (O43613 whole entry): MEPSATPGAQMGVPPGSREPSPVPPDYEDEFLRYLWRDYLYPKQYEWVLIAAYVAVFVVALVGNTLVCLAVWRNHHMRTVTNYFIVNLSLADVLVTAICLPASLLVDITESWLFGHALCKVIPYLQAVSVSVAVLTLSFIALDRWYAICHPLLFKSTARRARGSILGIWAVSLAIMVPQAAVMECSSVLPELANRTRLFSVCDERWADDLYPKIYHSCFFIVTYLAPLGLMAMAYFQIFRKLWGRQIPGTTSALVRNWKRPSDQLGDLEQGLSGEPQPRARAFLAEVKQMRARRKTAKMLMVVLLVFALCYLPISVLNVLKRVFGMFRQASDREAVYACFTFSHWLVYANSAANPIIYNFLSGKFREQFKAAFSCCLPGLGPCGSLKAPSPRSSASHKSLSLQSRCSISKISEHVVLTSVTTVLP
experiment: In vitro assay: intracellular calcium measurements (FLIPR), antagonistic activity
details: CHO cells expressing human orexin-1 receptor, orexin-A agonist, geometric mean, read-out: IC50 Ox1
Experimental: In Vitro Assay: Intracellular Calcium Measurements: […] Within the Fluorescent Imaging Plate Reader (FLIPR Tetra, Molecular Devices), antagonists are added to the plate in a volume of 10 μl/well, incubated for 120 min and finally 10 μl/well of agonist is added. […] The calculated IC50 values may fluctuate depending on the daily cellular assay performance. […]
pIC50 here: minus log base 10 of the concentration, concentration in moles per litre.

Task: Hi! What's the reported pIC50 for COc1cc2nc(C3CCCN3C(=O)c3nc(C)sc3-c3ccccc3)[nH]c2cc1OC (stereo not drawn) [Ex. 1.134] on human orexin-1 receptor (Homo sapiens (Human), UniProt O43613)?
Output: 6.94

Task: Same question, Cc1nc(C(=O)N2CC[C@H](C)[C@H]2c2nc3c(F)c(F)ccc3[nH]2)c(-c2cccc(Cl)c2)s1 [Ex. 4.23] this time
Output: 8.05

Task: Same question, CSc1cccc2nc([C@@H]3CCCN3C(=O)c3nc(C)sc3-c3cccc(C(F)(F)F)c3)[nH]c12 [Ex. 1.64] this time
Output: 7.92

Task: Same question, Cc1nc(C(=O)N2C[C@@H](F)C[C@H]2c2nc3c(C)cccc3[nH]2)c(-c2ccccc2)s1 [Ex. 2.2] this time
Output: 5.89

Task: Same question, CO[C@H]1CN(C(=O)c2cc(C)ccc2-n2nccn2)[C@](C)(c2nc3c(C)c(Cl)ccc3[nH]2)C1 [Ex. 3.30] this time
Output: 8.70

Task: Same question, C=C1C[C@@H](c2nc3cc(OC)ccc3[nH]2)N(C(=O)c2cnc(C)nc2-c2cccc(C)c2)C1 [Ex. 6.11] this time
Output: 6.87

Task: Same question, C[C@@]1(c2nc3cc(Cl)c(C(F)(F)F)cc3[nH]2)CCCN1C(=O)c1nc(-c2ccccc2)sc1-c1ccc(F)cc1 [Ex. 5.285] this time
Output: 7.49

Task: Same question, CSc1cccc2nc([C@@H]3CCCN3C(=O)c3cnc(C)nc3-c3ccccc3)[nH]c12 [Ex. 1.87] this time
Output: 7.52

Task: Same question, Cc1cc2[nH]c([C@@H]3[C@@H](C)CCN3C(=O)c3cc(Cl)ccc3-c3ccccc3)nc2cc1Cl [Ex. 4.103] this time
Output: 8.40

Task: Same question, C[C@@]1(c2nc3cc(Cl)c(C(F)(F)F)cc3[nH]2)CCCN1C(=O)c1nc(-c2cccc(F)c2)sc1-c1ccc(F)cc1 [Ex. 5.290] this time
Output: 7.48

Task: Same question, COc1ccc2nc([C@@H]3[C@@H](C)CCN3C(=O)c3nc(C)sc3-c3cccc(Cl)c3)[nH]c2c1 [Ex. 4.26] this time
Output: 7.77

Task: Same question, Cc1nc(C(=O)N2CC[C@H](C)[C@H]2c2nc3cc(C#N)ccc3[nH]2)c(-c2cccc(Cl)c2)s1 [Ex. 4.8] this time
Output: 7.17

Task: Same question, Cc1ccc(-c2ccccc2)c(C(=O)N2CCC[C@@]2(C)c2nc3c(C)c(C)c(Br)cc3[nH]2)c1 [Ex. 5.270] this time
Output: 8.15

Task: Same question, Cc1nc(C(=O)N2CC[C@H](C)[C@H]2c2nc3c(C(F)(F)F)cccc3[nH]2)c(-c2ccc(Br)cc2)s1 [Ex. 4.151] this time
Output: 8.30

Task: Same question, Cc1ccc(-c2ccc(F)cc2C)c(C(=O)N2CCC[C@@]2(C)c2nc3cc(C(F)(F)F)ccc3[nH]2)c1 [Ex. 5.181] this time
Output: 6.41
